// provenance: PubChem BioAssay

tested on: Aerobactin synthetase IucA (Klebsiella pneumoniae hvKP1); experiment: Biochemical IucA enzyme inhibition primary screen of the Spectrum library (AID 1346200); details: malachite green pyrophosphate, A620, at 8 µM, active compounds read low;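 also: 100% = wells without compound and 0% = wells lacking enzyme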
Positions of bridges follow the written chain, without caps; N, C: chain ends. Non-standard residues stand in square brackets, D forms with d. Residues, ends and D or L forms follow the SMILES beside them. ξ: configuration not given here. *: point of attachment. ξDab(CH2SO3H) = NC(CCNCS(=O)(=O)O)C(=O)O; Heptanoyl(6-Me) = CC(C)CCCCC(=O)*; Dab = NCC[CH](N)C(=O)O
Quick reference for activity remaining among some compounds
Just the number please, in %, no unit attached.

Recorded activity remaining for CCC(C)C1NC(=O)C(CCNCS(=O)(=O)O)NC(=O)C(NC(=O)C(CCNCS(=O)(=O)O)NC(=O)C(NC(=O)C(CCNCS(=O)(=O)O)NC(=O)CCCCC(C)C)C(C)O)CCNC(=O)C(C(C)O)NC(=O)C(CCNCS(=O)(=O)O)NC(=O)C(CCNCS(=O)(=O)O)NC(=O)C(C(C)CC)NC1=O (stereo unspecified) ({Heptanoyl(6-Me)}-[ξDab(CH2SO3H)]T[ξDab(CH2SO3H)][Dab][ξDab(CH2SO3H)]II[ξDab(CH2SO3H)][ξDab(CH2SO3H)]T; lactam 4-C; configuration not given here) , please? 120

Recorded activity remaining for c1ccc(-c2ccc(C(c3ccccc3)n3ccnc3)cc2)cc1 (stereo unspecified) , please? 111
